organism: Rattus norvegicus; test: Organ distribution of [18F]ACF radiolabeled compound in rat lung after 120 min; assay type: ADME, organism-based; settings: in vivo, 2 h
observable: Dose/g (% dose/organ)
Entry rule: numbers only, all in % dose/organ.

Dose/g reading for CN(C)Cc1ccccc1Sc1cc(F)c(Cl)cc1N : 0.32

* * *

species: Rattus norvegicus; assay: Organ distribution of [18F]-ACF radiolabeled compound in rat skin after 120 min; type: ADME, organism-based; settings: in vivo, 2 h
observable: Dose/g (% dose/organ)
Entry rule: numbers only, all in % dose/organ.

Dose/g reading for CN(C)Cc1ccccc1Sc1cc(F)c(Cl)cc1N : 2.61

* * *

test system: Rattus norvegicus; experiment: Effect of pretreatment with (+)-McN5652 with a dose of 2 mg/kg (i.v.) on specific binding of [18F]ACF in rat brain remainder; dose/g; format: ADME, organism-based; design: dose 2 mg/kg, route intravenous; conditions: in vivo, iv
observable: Dose/g (%)
Entry rule: numbers only, all in %.

Dose/g reading for CN(C)Cc1ccccc1Sc1cc(F)c(Cl)cc1N : 0.23

* * *

species: Rattus norvegicus; assay: Organ distribution of [18F]ACF radiolabeled compound in rat heart after 120 min; assay type: ADME, organism-based; settings: in vivo, 2 h
observable: Dose/g (% dose/organ)
Entry rule: numbers only, all in % dose/organ.

Dose/g reading for CN(C)Cc1ccccc1Sc1cc(F)c(Cl)cc1N : 0.06

* * *

species: Rattus norvegicus; assay: Organ distribution of [18F]-ACF radiolabeled compound in rat liver after 30 min; type: ADME, organism-based; conditions: in vivo, 0.5 h
observable: Dose/g (% dose/organ)
Entry rule: numbers only, all in % dose/organ.

Dose/g reading for CN(C)Cc1ccccc1Sc1cc(F)c(Cl)cc1N : 15.2

* * *

tested on: Rattus norvegicus; assay: Ratio of effect of pretreatment with (+)-McN5652 with a dose of 2 mg/kg (i.v.) on specific binding of [18F]ACF in rat brain hypothalamus to that of cerebellum; format: ADME, organism-based; parameters: dose 2 mg/kg, route intravenous; settings: in vivo, iv
observable: Ratio
Give only the figure.

Ratio reading for CN(C)Cc1ccccc1Sc1cc(F)c(Cl)cc1N : 1.36

* * *

tested on: Rattus norvegicus; experiment: Ratio of effect of pretreatment with (+)-McN5652 with a dose of 2 mg/kg (i.v.) on specific binding of [18F]ACF in rat brain cortex to that of cerebellum; format: ADME, organism-based; parameters: dose 2 mg/kg, route intravenous; conditions: in vivo, iv
observable: Ratio
Give only the figure.

Ratio reading for CN(C)Cc1ccccc1Sc1cc(F)c(Cl)cc1N : 1.43

* * *

organism: Rattus norvegicus; assay: Organ distribution of [18F]-ACF radiolabeled compound in rat muscle after 30 min; assay type: ADME, organism-based, Muscle tissue; details: in vivo, 0.5 h
observable: Dose/g (% dose/organ)
Entry rule: numbers only, all in % dose/organ.

Dose/g reading for CN(C)Cc1ccccc1Sc1cc(F)c(Cl)cc1N : 10.7

* * *

target: Sodium-dependent noradrenaline transporter (Homo sapiens, UniProt P23975); experiment: Selectivity for norepinephrine transporter
Sequence (P23975 whole entry, looked up): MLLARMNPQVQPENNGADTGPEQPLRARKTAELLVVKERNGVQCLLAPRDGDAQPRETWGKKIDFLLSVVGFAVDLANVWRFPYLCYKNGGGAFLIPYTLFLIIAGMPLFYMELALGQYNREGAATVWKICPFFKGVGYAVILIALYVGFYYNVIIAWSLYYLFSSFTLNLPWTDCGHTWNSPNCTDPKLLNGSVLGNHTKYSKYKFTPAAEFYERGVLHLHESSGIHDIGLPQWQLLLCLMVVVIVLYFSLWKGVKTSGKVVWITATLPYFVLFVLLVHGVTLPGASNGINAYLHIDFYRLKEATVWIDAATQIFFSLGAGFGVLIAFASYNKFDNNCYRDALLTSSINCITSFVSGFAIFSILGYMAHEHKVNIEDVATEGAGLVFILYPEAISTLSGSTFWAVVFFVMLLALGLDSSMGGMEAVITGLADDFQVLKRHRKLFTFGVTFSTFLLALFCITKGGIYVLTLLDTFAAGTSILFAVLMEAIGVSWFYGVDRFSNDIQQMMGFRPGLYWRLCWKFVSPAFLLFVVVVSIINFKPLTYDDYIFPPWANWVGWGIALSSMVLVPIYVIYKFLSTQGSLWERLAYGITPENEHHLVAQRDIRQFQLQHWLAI
observable: Ki (nM)
Entry rule: numbers only, all in nM.

Ki reading for CN(C)Cc1ccccc1Sc1ccc(Cl)cc1CO : 55

* * *

organism: Rattus norvegicus; assay: Organ distribution of [18F]-ACF radiolabeled compound in rat skin after 60 min; assay type: ADME, organism-based; conditions: in vivo, 1 h
observable: Dose/g (% dose/organ)
Entry rule: numbers only, all in % dose/organ.

Dose/g reading for CN(C)Cc1ccccc1Sc1cc(F)c(Cl)cc1N : 5.97

* * *

tested on: Rattus norvegicus; assay: Effect of pretreatment with (+)-McN5652 with a dose of 2 mg/kg (i.v.) on specific binding of [18F]ACF in rat brain hypothalamus; type: ADME, organism-based; set-up: dose 2 mg/kg, route intravenous; conditions: in vivo, iv
observable: Dose/g (%)
Entry rule: numbers only, all in %.

Dose/g reading for CN(C)Cc1ccccc1Sc1cc(F)c(Cl)cc1N : 0.24

* * *

organism: Rattus norvegicus; experiment: Organ distribution of [18F]-ACF radiolabeled compound in rat spleen after 60 min; assay type: ADME, organism-based; details: in vivo, 1 h
observable: Dose/g (% dose/organ)
Entry rule: numbers only, all in % dose/organ.

Dose/g reading for CN(C)Cc1ccccc1Sc1cc(F)c(Cl)cc1N : 0.13

* * *

tested on: Rattus norvegicus; test: Effect of pretreatment with (+)-McN5652 with a dose of 2 mg/kg (i.v.) on specific binding of [18F]ACF in rat brain striatum; type: ADME, organism-based; parameters: dose 2 mg/kg, route intravenous; conditions: in vivo, iv
observable: Dose/g (%)
Entry rule: numbers only, all in %.

Item: CN(C)Cc1ccccc1Sc1cc(F)c(Cl)cc1N | System: Rattus norvegicus | Dose/g: 0.25

* * *

biological target: Sodium-dependent serotonin transporter (Rattus norvegicus); experiment: Inhibition of 5-HT reuptake (SERT) in rat brain synaptosomes.; assay type: subcellular
Sequence (P31652 whole entry): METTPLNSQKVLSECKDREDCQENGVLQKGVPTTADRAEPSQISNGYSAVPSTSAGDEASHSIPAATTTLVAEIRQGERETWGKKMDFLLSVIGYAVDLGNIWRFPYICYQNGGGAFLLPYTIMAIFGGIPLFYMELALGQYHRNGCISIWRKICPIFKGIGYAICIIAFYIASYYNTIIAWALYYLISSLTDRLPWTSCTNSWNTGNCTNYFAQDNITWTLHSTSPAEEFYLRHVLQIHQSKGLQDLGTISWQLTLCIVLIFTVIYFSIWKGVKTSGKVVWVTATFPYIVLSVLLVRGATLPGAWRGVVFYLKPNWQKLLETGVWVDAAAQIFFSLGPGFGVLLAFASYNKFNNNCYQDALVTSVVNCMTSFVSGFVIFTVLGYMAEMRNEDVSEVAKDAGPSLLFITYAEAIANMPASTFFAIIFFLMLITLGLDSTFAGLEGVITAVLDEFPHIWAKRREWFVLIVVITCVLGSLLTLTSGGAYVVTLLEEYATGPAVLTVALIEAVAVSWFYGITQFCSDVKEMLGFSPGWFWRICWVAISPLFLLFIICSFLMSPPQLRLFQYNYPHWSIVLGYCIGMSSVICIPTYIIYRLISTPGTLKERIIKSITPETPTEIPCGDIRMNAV
observable: pKi
Lab note — pKi values are minus log10 of concentrations in M.

pKi reading for CN(C)Cc1ccccc1Sc1ccc(Cl)cc1CO : 8.68

* * *

species on record: Rattus norvegicus; assay: Organ distribution of [18F]-ACF radiolabeled compound in rat spleen after 120 min; type: ADME, organism-based; conditions: in vivo, 2 h
observable: Dose/g (% dose/organ)
Entry rule: numbers only, all in % dose/organ.

Dose/g reading for CN(C)Cc1ccccc1Sc1cc(F)c(Cl)cc1N : 0.06
